Below, each entry is listed alongside its reported MBC.
test system: P. intermedia ATCC 25611; test: micro-dilution broth method (MIC, MBC); type: cell-based; details: P. intermedia ATCC 25611

Previously resolved entries follow.
Cc1ncc([N+](=O)[O-])n1CCO.Cc1ncc([N+](=O)[O-])n1CCO.O=[N+]([O-])[O-].[Ag+] [[Ag(MTZ)2NO3]]
0.98 µg/mL
O=S(=O)([O-])[O-].[Ag+].[Ag+] [Ag2SO4, silver sulfate]
7.8 µg/mL
Cc1ncc([N+](=O)[O-])n1CCO.Cc1ncc([N+](=O)[O-])n1CCO.Cc1ncc([N+](=O)[O-])n1CCO.Cc1ncc([N+](=O)[O-])n1CCO.O=S(=O)([O-])[O-].[Ag+].[Ag+] [[Ag(MTZ)2]2SO4]
15.6 µg/mL

Item O=[N+]([O-])[O-].[Ag+] [AgNO3, Silver nitrate] : provide MBC
0.49 µg/mL
